# procedure summary: yeast display, Sf9 membrane polyspecificity reagent, FACS + sequencing; frameworks hold sequencing errors
assay readout: polyreactivity (PSR sort gate)

Example entries and their recorded answers appear below.
- QVQLVESGGGLVQAGGSLRLSCAASGNIFFSNAMGWYRQAPGKERELGASISQSGGSTYYADAVKGRFTISRDNAKNTVYLQMNSLKPEDTAVYYCAATQVRRGPAWGRDYWGQGTQETVSS: low polyreactivity
- QVQLVESGGGLVQAGGSLRLSCAASGRTFYGYAMGWYRQAPGKERELVAAISFSGGRTYYADSVKGRFTISRDNAKNTVYLQMNSLKPEDTAVYYCAAVPRGWFSYPSGYDYWGQGTQVTVSS: high polyreactivity
- QEQLQESGSGLVQAGGSLRLICAASRNIFQDWVMGWYRKEPGKEPELVAAISPGAITYYADSVKGRFTISRDNAKNTVYLQTNSLKPEDTAVYYCGAYYIVEYLHGYWGQGTRVTVSS: low polyreactivity
- QVQLVESGGGLVQAGGSLRLSCAASGFTIPYKAMGWYRHAPGKERELVAAISRSGTRTYYADSVKGRFTISRDNAKNTVYIQMNSLKPEDTAVYYCAKDTIGGASPHYYWGQGTQVTVSS: high polyreactivity

// switching to the query sequence
Input: Would you kindly share the measured polyreactivity (PSR sort gate) for QVQLVESGGGLVQAGGSLRLSCAASGRIFYSYAMGWYRQAPGKERELVAAITRGGSTSYADSVKGRFTISRDNAKNTVYLQMNSLKPEDTAVYYCATRQFYSYWKYYYWGQGTQVTVSS ?
Output: high polyreactivity

###

# procedure summary: yeast display, Sf9 membrane polyspecificity reagent, FACS + sequencing; frameworks hold sequencing errors
assay readout: polyreactivity (PSR sort gate)

- QVQLVESGGGLVQAGGSLRLSCAASGSTFDINAMGWYRQAPGKERELVAAINSDARTNYADSVKGRFTISRDNAKNTVYLLMNSLKPEDTAVYYCATDTSHSTYQYGYWGQGTQVSVSS: low polyreactivity
- QVQLVASGGGLVQAGGSLRLTCAASGITSWYYAMGWYRQAPGKERELVAAITSDGSTYYADSVKGRFTISRDNAKNTVYLQMNSLNPEDTAVYYCAAERDYWIPDSYLVVMDYWGQGTQVTVSS: low polyreactivity
- QVQLVESGGGLVQAGGSLRLISAASGIIFWGNAMGWYRQPPGNERELVATITGRGGSTYYADSVKGRFTISRDYAKNTVYLQMNSLKPEDTAVYYCAASGGRPILFYDVWGGIVRHEYWGQGTQVTVSS: low polyreactivity
- QVQLVESGGGLVQAGGSLRLSCAASGSIFSYYPMGWYRPAPGKERELVAAISWSGGSTYYADSVKGRFTISRDNAKNTVYLQMNSLKPEDTAVYYCAAQSWSGDSSFWRYDYWGQGTQVTVSS: low polyreactivity
- QVQLVESGGGLLQAGGSLRISCAASGITFVYYVMGWYRQAPRKERELVAGISSGGSTYYADSVKGRFTISRDNAKNTVYLQMISLKPEDTAVYYCNAVDTYGLWRRYNYWGQGTQVTVSS: high polyreactivity

Input: Would you kindly share the measured polyreactivity (PSR sort gate) for QVQLVESGGGLVQAGGSLRLSCAASGYIFYDYAMGWYRQAPGKERELVAAIRRSTGTTYYADSVKGRFTISRDNAKNTVYLQMNSLKPEDTAFYYCAALFRPRVHRYDYWGQGTQVTVSS ?
Output: low polyreactivity

Input: Would you kindly share the measured polyreactivity (PSR sort gate) for QVQLVESGGGLVQAGGCLRLSCAASGFIFSKNVMGWYRQAPGTERELVARITRSGGTTNYADSVKGRFTISRDNAKNTVYLQMNSLNPGDTAVYFCAARGYGYTSITWYDYWGQGTQVTVSS ?
Output: high polyreactivity

Input: Would you kindly share the measured polyreactivity (PSR sort gate) for QVQLVESGGGLVQAGGSLRLSCAASGSTFVSYAMGWYRQAPGKERELVAAISTSGGTTYYADSVKGRFTISRDNAKNTVYLQMNSLKPEDTAVYYCAAYDFKYKGYDYWGQGTQVTVSS ?
Output: high polyreactivity

Input: Would you kindly share the measured polyreactivity (PSR sort gate) for QVQLVESGGGLVQAGGRLRLSCAASGLIFVWYAMGWYRQAPGKERELVAAISTSGGSTYYADSVKGRFTISRDNAKNTVYLQMNSLKPEDTAVYYCAAARRWWPQGYYWGQGTQVTVSS ?
Output: high polyreactivity

Input: Would you kindly share the measured polyreactivity (PSR sort gate) for QVQLVESGGGLVQAGGSLRLSCAASGRIFVKYAMGWYRQEPGKERELVAAIRWSVGSTYYADSVKGRFTISRDNAKNTVYLLMNSLKPEDTAVYYCAAQPVRKLYWGQGTQVTVSS ?
Output: high polyreactivity

Input: Would you kindly share the measured polyreactivity (PSR sort gate) for QVQLVESGGGLVQAGGSLRLSCAASGSTFLRNVMGWYRQAPGKESELVAAISSRGGSTHYADSVKGRFTISRDNAKNSVYLQMNILKPEDTAVYYCNAERSAAQYVRAAYDYWGQGTQVTVSS ?
Output: low polyreactivity

Input: Would you kindly share the measured polyreactivity (PSR sort gate) for HVQLVESGGGLVQAGGSLRLSCAASGRSFRYNAMGWYRQAPGKERELVAAITRSGGSTDYADSVKGRFTISRDNAKNTVNLQMNSLKPEDTAVYYCAKLQNGQWSTSRVPGDYQYNYWGQGTQVTVSS ?
Output: high polyreactivity

Input: Would you kindly share the measured polyreactivity (PSR sort gate) for QVQLVESGGGLVQAGGSLRLSCAASGRIFKRYAMGWYRQAPGKERELVASITTSGDSTYYADSVKGRFTISRDNAKNTVYLQMNSLKPEDTAVYYCAARSYRGRRYDYWGQGTQVTVSS ?
Output: high polyreactivity

Input: Would you kindly share the measured polyreactivity (PSR sort gate) for QVQLVASGGGLVLAGGILRLSCAASGSTFVSNALGWYRLAPGKERALVAVITFRGGTTYYADSVKGRFTISRDNAKNTVYLQMNSLKPEDTAGYYCAARSYQYSYSFYWGQGTQVTVSS ?
Output: high polyreactivity

Input: Would you kindly share the measured polyreactivity (PSR sort gate) for QVQLVESGGGLVQAGGSLRLSCAASGFTFYNYAMGWFRQATGKERELVAASNSGGSTYYADSVKGRFTSSRDNATNTVYLQMNSLKPEDTAVDYFAARSYYQYRRYYSWGQGTQVTVSS ?
Output: high polyreactivity

Input: Would you kindly share the measured polyreactivity (PSR sort gate) for QVQLVESGGGLVQAGGSLRLSCAASGFTFYNNAMGWYRQAPGKERELVAAISRSGGSTHYADSVKGRFTISRDTAKNTVYLQMNSLKPEDNAVYYCAKVGVLGYYTYYYWGQVTQVTVSS ?
Output: low polyreactivity

Input: Would you kindly share the measured polyreactivity (PSR sort gate) for QVQLVETGGGLVQARGSLRLSCAASGRTFYKYAMGWYIQAPGKERELVAAISSDGTTYYADSVKGRFTISRDNAKNTVYLQMNRLKPVDTAVYYFAADPPPPFLYVSVQEYDYWGQGTQVTVSS ?
Output: low polyreactivity

Input: Would you kindly share the measured polyreactivity (PSR sort gate) for QVQLVQSGGGLVQAGGSLRLSCAASGSIFAVYGMGWNRQAPGKERELVASISTGVSTNYADSVKGRFTISRDNAKNTVYLQRHSLKPEDTAVYYCAKTIYKSRVSYGSWGQGTQVTVSS ?
Output: low polyreactivity

Input: Would you kindly share the measured polyreactivity (PSR sort gate) for QVQLVESGGGLVQAGGSLRLSCAASGSTFAKNAMGWYRQAPGKERELVAAITYSGGSTYYADSVKGRFTISRDYAKNTVYLEMYSLKPEYTAVYYCAADVWWSYFRYDYWGQGTQVTVSW ?
Output: low polyreactivity

Input: Would you kindly share the measured polyreactivity (PSR sort gate) for QVQLVESGGGLVQAGGSLRLSCAASGSTFVRYAMGWYRQAPGKERELVAAISGSGGRTYYADSVKGRFTISRDNAKNTVYLQMYSLKPEDTAVYYCATSTAGGRQTVSQYRYYWGQGTQVTVSS ?
Output: high polyreactivity

Input: Would you kindly share the measured polyreactivity (PSR sort gate) for QVQLVESGGGLVQAGGSLRLSCAASGFIFTDYAMGWYRQAPGKERELVATISWSGSSTYYADSVKGRFTISRDNEKNTVYLQMNILKPEDTGVYYCAAEFWYTYPYLVDYWRQGTQVTVSS ?
Output: low polyreactivity
